tested on: gravid White New Zealand female rabbits; assay: Teratogenicity in gravid White New Zealand rabbits; type: in vivo, rabbit; conditions: 10 mg/kg daily, day 5 to day 18 of gestation
Structures can show the parent of a compound that is named as a salt.
OBSERVED_PROPERTY: Affected foetuses, number
Answer field: number only, no words.

Here's what some known entries look like.
COMPOUND	Affected foetuses, number
CC(C(=O)c1cccc(N)c1)N1CCCCC1 (stereo not drawn) [CRL 41 263, dihydrochloride]	0
CC(C)NC(C)C(=O)c1cc(Cl)c(N)c(Cl)c1 (stereo not drawn) [CRL 41 194, hydrochloride]	0
CC(NC(C)(C)C)C(=O)c1ccc(N)cc1 (stereo not drawn) [CRL 41 178]	1
CC(C(=O)c1ccc(N)cc1)N1CCCC1 (stereo not drawn) [CRL 41 222, dihydrochloride]	0
CC(C(=O)c1ccc(N)cc1)N(C)C (stereo not drawn) [CRL 41 233]	0

Note down Affected foetuses, number recorded for Nc1cccc(C(=O)CN2CCOCC2)c1 [A 17, reference compound]
11
